Test system: K562
Experimental protocol: cells
Measurement setup: Homo sapiens, K562, 72 h
Description: Cytotoxicity against human K562 cells assessed as inhibition of cell growth incubated for 72 hrs by CCK-8 assay
Quantity measured: pIC50
In plain terms, pIC50 is the concentration in mol/L turned into minus its base-10 logarithm.

IN: Which pIC50 value belongs to COc1cccc2c1C(=O)c1c(O)c3c(c(O)c1C2=O)C[C@@](O)(C(=O)CO)C[C@@H]3O[C@H]1C[C@H](N)[C@H](O)[C@H](C)O1.Cl [DOXORUBICIN HYDROCHLORIDE] ?
OUT: 9.00

====

Tgt: Cytochrome P450 3A4 (Homo sapiens)
Sequence (P08684 whole entry): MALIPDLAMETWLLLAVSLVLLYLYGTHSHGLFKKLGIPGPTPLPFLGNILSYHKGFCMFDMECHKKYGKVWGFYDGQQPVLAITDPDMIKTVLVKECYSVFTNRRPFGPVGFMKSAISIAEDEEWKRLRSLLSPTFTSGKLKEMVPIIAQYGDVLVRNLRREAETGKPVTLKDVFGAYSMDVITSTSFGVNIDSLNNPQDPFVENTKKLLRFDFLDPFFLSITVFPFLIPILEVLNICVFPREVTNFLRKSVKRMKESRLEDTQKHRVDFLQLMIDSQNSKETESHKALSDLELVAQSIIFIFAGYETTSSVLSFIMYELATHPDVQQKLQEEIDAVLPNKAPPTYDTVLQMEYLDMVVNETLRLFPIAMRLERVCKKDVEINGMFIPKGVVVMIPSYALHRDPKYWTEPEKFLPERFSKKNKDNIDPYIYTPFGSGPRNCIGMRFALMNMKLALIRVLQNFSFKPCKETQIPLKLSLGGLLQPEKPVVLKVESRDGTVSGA
Experimental protocol: Inhibition of CYP3A4 (unknown origin) using luciferin-IPA as substrate preincubated for 1 hr followed by substrate addition and measured after 1 hr by luminometer assay
Format: ADME
Quantity measured: pIC50
Note on pIC50: it is the negative log10 of concentration, concentration in mol/L.

IN: # get_value(readout='pIC50', item= `COc1cc2c(cc1OC)CN(CCc1ccc(N3Cc4cc(OC)c5c(c4-c4c(cc(OC)c6c4OCO6)C3)OCO5)cc1)CC2` )
OUT: 5.58
